Procedure Details: viability loss of HPDE-C7K cells – cell-based, fluorescence, HTS, primary screen (AID 431);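 note: 0% = DMSO solvent wells and 100% = doxorubicin-treated wells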
Details: HPDE-C7K KRASV12 cells, Alamar Blue viability, 48 h; at 10 µM
In all, about 63,000 compounds went through this assay and about 1,100 (1.7%) were called active.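 Rule for the calls: active = compounds whose percent cytotoxicity in the single-dose primary screen, scaled between solvent and toxic-drug controls, exceeds 50; inactive = the rest.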 Only a selection was taken, and actives are over-represented in it overall. Measured potencies and affinities stand elsewhere.
Outcomes you can answer with include only these: active, inactive

# count of solved cases: 2
[[record]]
compound = "COc1ccc(NC(=O)c2cc3n(n2)C(C(F)(F)F)CC(c2ccc4c(c2)OCO4)N3)cc1OC (configuration not stated)"
label = "active"

[[record]]
compound = "CCN(CC)c1ccc(NC(=O)c2cccc(C)c2OC)c(C)c1"
label = "inactive"


Exam item: Field: outcome | Entry: O=C(NCCc1ccccc1)c1ccnc(/C=N/O)c1
Marked response: inactive

Exam item: Field: outcome | Entry: COc1ccc(C2CC(C(F)(F)F)n3nc(C(=O)Nc4ccc5c(c4)OCO5)cc3N2)cc1 (configuration not stated)
Marked response: inactive

Exam item: Field: outcome | Entry: CC(=O)NCc1nc2ccccc2n1Cc1ccccc1C
Marked response: inactive

Exam item: Field: outcome | Entry: COc1ccccc1NC(=O)c1cc2n(n1)C(C(F)(F)F)CC(c1ccc3c(c1)OCO3)N2 (configuration not stated)
Marked response: inactive

Exam item: Field: outcome | Entry: O=C(NCc1ccc2c(c1)OCO2)c1cc2n(n1)C(C(F)(F)F)CC(c1ccc3c(c1)OCO3)N2 (configuration not stated)
Marked response: inactive

Exam item: Field: outcome | Entry: O=C(CN1CCN(c2ccccn2)CC1)N1c2ccccc2CCc2ccccc21
Marked response: inactive

Exam item: Field: outcome | Entry: O=C(Nc1ccc2nc[nH]c2c1)c1ccco1
Marked response: inactive

Exam item: Field: outcome | Entry: O=C(O)CCS(=O)(=O)Cc1ccccc1F
Marked response: inactive

Exam item: Field: outcome | Entry: COC(=O)c1cn(NC(=O)c2cccc(N(C)C)c2)c(=O)c2ccccc12
Marked response: inactive

Exam item: Field: outcome | Entry: CCOC(=O)NC1(C(F)(F)F)C(=O)NC(C)=C1C#N (configuration not stated)
Marked response: inactive

Exam item: Field: outcome | Entry: COc1cc(C(=S)N2CCCCC2)ccc1OCC(=O)N1CCCC1
Marked response: inactive

Exam item: Field: outcome | Entry: Cn1c(NCCN2CCOCC2)nc2c1c(=O)n(Cc1cccc(Cl)c1)c(=O)n2C
Marked response: inactive

Exam item: Field: outcome | Entry: O=C(CN1C(=O)CCSc2ccccc21)Nc1ccccc1
Marked response: inactive

Exam item: Field: outcome | Entry: Cc1cc(NC(=O)CN2CCN(c3ncccn3)CC2)no1
Marked response: inactive

Exam item: Field: outcome | Entry: COc1ccc(S(=O)(=O)Cc2ccc(C(=O)NCCCN(C)c3ccccc3)o2)cc1
Marked response: inactive

Exam item: Field: outcome | Entry: CCOc1ccc(NC(=O)CCS(=O)(=O)c2ccc3c(c2)CCCN3C(C)=O)cc1
Marked response: inactive

Exam item: Field: outcome | Entry: CCSc1nnc(-c2ccc(S(=O)(=O)N3CCOCC3)cc2)n1CC1CCCO1 (configuration not stated)
Marked response: inactive

Exam item: Field: outcome | Entry: CCOC(=O)C1CCCN(CCC(C)c2ccccc2)C1 (configuration not stated)
Marked response: inactive

Exam item: Field: outcome | Entry: Nc1c(NCCCN2CCOCC2)c2ccccc2oc1=O
Marked response: inactive

Exam item: Field: outcome | Entry: Cc1cc(NC(=O)c2cc3n(n2)C(C(F)(F)F)CC(c2ccc(Cl)c(Cl)c2)N3)no1 (configuration not stated)
Marked response: inactive

###

Known cytotoxicity of a selection of compounds
Procedure Details: viability loss of HPDE-C7K cells – cell-based, fluorescence, HTS, primary screen (AID 431);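 note: 0% = DMSO solvent wells and 100% = doxorubicin-treated wells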
Details: HPDE-C7K KRASV12 cells, Alamar Blue viability, 48 h; at 10 µM; hits give high values
In all, about 63,000 compounds went through this assay and about 1,100 (1.7%) were called active. Only a selection was taken, and actives are over-represented in it overall. Potency and affinity values are given separately.
Response body: numeric value in %, unit text excluded.

Example results:
[[record]]
compound = "Cc1nnn(C23CC4CC(CC(C4)C2)C3)n1"
numeric_result = 4.5

[[record]]
compound = "Cc1ccc(CCNc2ccccc2)c[n+]1[O-]"
numeric_result = -10.6


Exam item: Which cytotoxicity is reported for this compound? COc1ccccc1N1CCN(CC(O)COc2c(OC)cccc2OC)CC1 (stereo unspecified)
Marked response: 3.7

###

Known cytotoxicity of a selection of compounds
Procedure Details: viability loss of HPDE-C7K cells – cell-based, fluorescence, HTS, primary screen (AID 431);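 note: 0% = DMSO solvent wells and 100% = doxorubicin-treated wells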
Details: HPDE-C7K KRASV12 cells, Alamar Blue viability, 48 h; at 10 µM; hits give high values
In all, about 63,000 compounds went through this assay and about 1,100 (1.7%) were called active. The entries come from a sample that favours actives as a whole. Results with a measured potency or affinity are listed apart.
Response body: numeric value in %, unit text excluded.

Example results:
[[record]]
compound = "CC(=O)C1=C(O)C(=O)N(Cc2ccco2)C1c1ccc(F)cc1 (stereo unspecified)"
numeric_result = 8.7

[[record]]
compound = "Cc1nc2cc(-c3cccc(F)c3)nn2c(C)c1CCC(=O)N1CCN(c2ccccn2)CC1"
numeric_result = -4.7

[[record]]
compound = "COc1ccccc1OCc1nc2c3c(-c4ccccc4)c(-c4ccccc4)oc3ncn2n1"
numeric_result = 9.1

[[record]]
compound = "O=C1c2[nH]nc(-c3ccccc3O)c2C(c2ccccc2)N1Cc1ccco1 (stereo unspecified)"
numeric_result = 32.3

[[record]]
compound = "O=C1c2[nH]nc(-c3ccccc3O)c2C(c2cccc(Cl)c2)N1CC1CCCO1 (stereo unspecified)"
numeric_result = 38.2


Exam item: Which cytotoxicity is reported for this compound? COc1ccc(-c2oc3ncn4nc(COc5ccccc5)nc4c3c2-c2ccc(OC)cc2)cc1
Marked response: 57.9

Exam item: Which cytotoxicity is reported for this compound? CCc1nc(NC2CCCCC2)c(C#N)c2c1COC(C)(C)C2
Marked response: 62

Exam item: Which cytotoxicity is reported for this compound? O=C(OCCN(C1=NS(=O)(=O)c2ccccc21)c1ccc(Cl)cc1)c1ccco1
Marked response: -16.8

Exam item: Which cytotoxicity is reported for this compound? CCc1nc(NCC2CCCO2)c(C#N)c2c1COC(C)(C)C2 (stereo unspecified)
Marked response: -3

Exam item: Which cytotoxicity is reported for this compound? O=C1c2ccccc2C(O)N1Cc1ccco1 (stereo unspecified)
Marked response: -9

Exam item: Which cytotoxicity is reported for this compound? COc1ccc(-c2nnc(SCc3ccccc3)n2N)cc1
Marked response: -12.1

###

Procedure Details: viability loss of HPDE-C7K cells – cell-based, fluorescence, HTS, primary screen (AID 431);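 note: 0% = DMSO solvent wells and 100% = doxorubicin-treated wells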
Details: HPDE-C7K KRASV12 cells, Alamar Blue viability, 48 h; at 10 µM; hits give high values
About 1,100 (1.7%) of roughly 63,000 compounds were called active. What follows is part of a selection rich in actives, with near analogues and random picks from the rest. Entries with a potency or affinity are not part of this list.
Known cytotoxicity of a selection of molecules
Response body: numeric value in %, unit text excluded.

Example results:
[[record]]
molecule = "Cc1ccc(-c2nnn(CC(=O)N(Cc3cccs3)C(C(=O)NC3CCCC3)c3ccco3)n2)o1 (stereo not given)"
unit_of_measure = "%"
numeric_result = 66.5

[[record]]
molecule = "COc1ccc(-c2nc(N)nc(C)c2Oc2ccccc2Br)c(O)c1"
unit_of_measure = "%"
numeric_result = 92.6

[[record]]
molecule = "Cc1ccc(-c2nnn(CC(=O)N(Cc3cccs3)C(C(=O)NC(C)(C)C)c3ccco3)n2)o1 (stereo not given)"
unit_of_measure = "%"
numeric_result = -2.9

[[record]]
molecule = "Cc1nc(Nc2ccccc2)[nH]c(=O)c1CCC(C)C"
unit_of_measure = "%"
numeric_result = -10.7


// moving on: another record for cytotoxicity
Exam item: Which cytotoxicity is reported for this molecule? Cc1ccc(-c2nnn(CC(=O)N(c3ccccc3)C(C(=O)NC3CCCC3)c3ccco3)n2)o1 (stereo not given)
Marked response: -7.9

###

Procedure Details: viability loss of HPDE-C7K cells – cell-based, fluorescence, HTS, primary screen (AID 431);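 note: 0% = DMSO solvent wells and 100% = doxorubicin-treated wells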
Details: HPDE-C7K KRASV12 cells, Alamar Blue viability, 48 h; at 10 µM; hits give high values
The whole screen tested about 63,000 compounds, of which about 1,100 (1.7%) were called active. This is one part of a sample in which actives are shown more often than they occur. Potency and affinity values are given separately.
One threshold, 30%, splits the recorded cytotoxicity values: lower ones are fulfilled, equal or higher ones are not fulfilled.

[[record]]
molecule = "CCOC(=O)c1ccc(N2C(=O)C(C)=C(C)C2=O)cc1"
label = "not fulfilled"

[[record]]
molecule = "COc1ccc(OC)c(C2CC(=O)c3c([nH]c(C(=O)OCC4CCCO4)c3C)C2)c1 (stereo not given)"
label = "fulfilled"

[[record]]
molecule = "CSc1nc(SCC(=O)NCc2ccco2)c2c3c(sc2n1)CN(C)CC3"
label = "fulfilled"


Exam item: Hello, is cytotoxicity of the following molecule strictly smaller than 30%? CC(C)Cn1c(N)c(C(=O)NCCN2CCOCC2)c2nc3ccccc3nc21
Marked response: fulfilled

Exam item: Hello, is cytotoxicity of the following molecule strictly smaller than 30%? COCCOC(=O)c1[nH]c2c(c1C)C(=O)C(C(=O)OC)C(C)C2 (stereo not given)
Marked response: fulfilled

Exam item: Hello, is cytotoxicity of the following molecule strictly smaller than 30%? CCCc1ccc(OCC(=O)O)cc1
Marked response: fulfilled

Exam item: Hello, is cytotoxicity of the following molecule strictly smaller than 30%? Cc1cc(NC(=O)c2cc(-c3ccncc3)nc3c(C)cccc23)no1
Marked response: not fulfilled

Exam item: Hello, is cytotoxicity of the following molecule strictly smaller than 30%? COCCNC(=O)c1c(N)n(-c2cccc(C)c2)c2nc3ccccc3nc12
Marked response: fulfilled

Where do these numbers come from? They come from PubChem BioAssay AID431.
